# Test system: P388 leukemia ip, CD2F1 mice, survival T/C
# test_method_notes: NCI In Vivo Anticancer Drug Screen. Data for tumor model P388 Leukemia (intraperitoneal) in CD2F1 (CDF1) mice
# cond: endpoint: median survival time; dose: 120.0 mg/kg/injection; schedule: Q01DX005 (ip); vehicle: saline with Tween-80; higher = longer survival
Inconclusive results and toxic doses are left out.
// reported T/C per item

O=C1COC(C(O)(c2ccccc2)c2ccccc2)C(=O)N1 (stereo not drawn) : 102 % of control

[Q] // query T/C value for entry CN(C)c1nc(=O)c2c(ccc3ccccc32)o1
[A] 104 % of control

[Q] // query T/C value for entry CN(C)CCn1ncc(Sc2cc([N+](=O)[O-])ccc2N)c(Cl)c1=O
[A] 96 % of control

###

# System: P388 leukemia ip, CD2F1 mice, survival T/C
# test_method_notes: NCI In Vivo Anticancer Drug Screen. Data for tumor model P388 Leukemia (intraperitoneal) in CD2F1 (CDF1) mice
# cond: endpoint: median survival time; dose: 200.0 mg/kg/injection; schedule: Q04DX003 (ip); vehicle: saline with Tween-80; higher = longer survival
Toxic doses and inconclusive results are not listed.
endpoint_label: T/C

CCOC(=O)NC(=S)Nc1ccn(C)c1 : 100 % of control
Cc1ccc2ncccc2c1 : 98 % of control
NC(=S)Nc1ccc(Cc2ccc(NC(N)=S)cc2)cc1 : 99 % of control
Cc1cc(C)c(O)c(N=Nc2ccccc2)c1 : 105 % of control
O=C1OC(=O)C2C3C=CC(C12)C1C2C(=O)OC(=O)C2C31 (centres undefined) : 99 % of control
Cc1nc(C(N)=O)c(=O)[nH]c1C : 106 % of control

[Q] // query T/C value for entry CC1=NN(C(=O)c2cccnc2)C(=O)C1N=Nc1ccc(S(=O)(=O)Nc2nccs2)cc1 (centres undefined)
[A] 99 % of control

[Q] // query T/C value for entry CCCN(CCC)CCSC(=S)NCCOC
[A] 100 % of control

[Q] // query T/C value for entry CCCCCCCCCCC(=O)CC
[A] 100 % of control

###

# Test system: P388 leukemia ip, CD2F1 mice, survival T/C
# test_method_notes: NCI In Vivo Anticancer Drug Screen. Data for tumor model P388 Leukemia (intraperitoneal) in CD2F1 (CDF1) mice
# cond: endpoint: median survival time; dose: 25.0 mg/kg/injection; schedule: Q01DX009 (ip); vehicle: saline with Tween-80; higher = longer survival
Toxic doses and inconclusive results are not listed.
endpoint_label: T/C

These solved cases illustrate the format of a correct answer.
CCCCOC(=O)c1[nH]cnc1/N=N\N(C)C : 120 % of control
CCOC(=O)C(Cc1ccc(O)cc1)NCc1ccc(N(CCCl)CCCl)cc1 (centres undefined) : 113 % of control
CCOC(=O)c1ccc(NC(=O)CS)cc1 : 98 % of control
NC(CS(=O)c1ccc(Cl)cc1)C(=O)O (centres undefined) : 100 % of control
O=C(Oc1cc([N+](=O)[O-])cc([N+](=O)[O-])c1)C(c1ccccc1)c1ccccc1 : 112 % of control
CC(C)CC(NC(=O)CN)C(=O)O (centres undefined) : 95 % of control

[Q] Form field - read-out: T/C; system: P388 leukemia ip, CD2F1 mice, survival T/C; submitted item: O=C(Nc1ccc2cc(S(=O)(=O)O)ccc2c1)c1ccc(N=Nc2c(S(=O)(=O)O)cc3cc(S(=O)(=O)O)cc(NC(=O)c4ccccc4)c3c2O)cc1
[A] 108 % of control

[Q] Form field - read-out: T/C; system: P388 leukemia ip, CD2F1 mice, survival T/C; submitted item: Cc1ccc2c(=O)n(C)c(=O)n(C)c2n1
[A] 102 % of control

[Q] Form field - read-out: T/C; system: P388 leukemia ip, CD2F1 mice, survival T/C; submitted item: O=C1c2ccccc2C(O)(C#Cc2ccccc2)c2c1oc1c2ccc2ccccc21 (centres undefined)
[A] 92 % of control

[Q] Form field - read-out: T/C; system: P388 leukemia ip, CD2F1 mice, survival T/C; submitted item: C=C1C2CCC3(C)C(c4ccoc4)OC(=O)CC13OC1CC(=O)C(C)(C)C(CC(=O)OC)C12C (centres undefined)
[A] 99 % of control

[Q] Form field - read-out: T/C; system: P388 leukemia ip, CD2F1 mice, survival T/C; submitted item: O=c1cc(Br)[nH]c(=O)o1
[A] 91 % of control

[Q] Form field - read-out: T/C; system: P388 leukemia ip, CD2F1 mice, survival T/C; submitted item: CCCCCCCCCCCCCCCCC(C(=O)O)C(O)(CC(=O)O)C(=O)O (centres undefined)
[A] 94 % of control

[Q] Form field - read-out: T/C; system: P388 leukemia ip, CD2F1 mice, survival T/C; submitted item: O=C(O)Cc1ccccc1C(=O)O.[Pb]
[A] 90 % of control

[Q] Form field - read-out: T/C; system: P388 leukemia ip, CD2F1 mice, survival T/C; submitted item: Oc1c(Br)cc(Br)cc1C1CCCCC1
[A] 110 % of control

Ref: PubChem BioAssay AID330
